The reported measurements were obtained from ChEMBL document CHEMBL1201862.

Listing of entries alongside the reported GI50.
Tested on: HOP-92
Experiment: NCI tumour cell line growth inhibition, 48 h
Activity calls are given as the source filed them. Rule as the data show it: active = GI50 up to about 1.1 µM and inactive = higher.

These solved cases illustrate the format of a correct answer.
| molecule | measurement |
| --- | --- |
| Cc1cc(NC(=O)NC(=O)c2ccccc2N(C)C)ccc1Oc1ncc(Br)cn1 | 1.3 µM (inactive) |
| O=C(N/N=C(/c1nc2ccc(Cl)cc2[nH]c1=O)C(O)c1ccc(Cl)cc1Cl)c1ccncc1 (centres undefined) | > 100 µM (inactive) |
| COc1cc(C(=O)/C=C/c2ccc(OCCSCCCCCCCCCCSCCOc3ccc(/C=C/C(=O)c4cc(OC)c(OC)c(OC)c4)cc3)cc2)cc(OC)c1OC | > 100 µM (inactive) |
| O=C(O)CCC(NC(=O)c1ccc(Nc2cnc3ccc(C(F)(F)F)cc3n2)cc1)C(=O)O (centres undefined) | > 100 µM (inactive) |
| CCOC(=O)C(NC(=O)Nc1ccccc1)(Nc1cccc(Cl)c1)C(F)(F)F (centres undefined) | 39.8 µM (inactive) |
| N#CC(C#N)/N=N/c1ccc(-c2nc3ccccc3o2)cc1 | 6.81 µM (inactive) |
| Cc1cc(C)nc(NS(=O)(=O)c2ccc(NNc3c4ccccc4nc4c(C(=O)Nc5ccc(S(=O)(=O)N=C(N)N)cc5)cccc34)cc2)n1 | 35.6 µM (inactive) |
| C/C(=C\[C@H]1C[C@@H]([C@@H]2CC[C@]34C[C@]23C=C[C@@H]2[C@@]3(C)CC=C5C[C@@H](c6ccccc6)OC[C@]5(C)[C@@H]3C[C@@H](O)[C@]24C)C(=O)O1)CO [DICHAPETALIN A] | 1.95 µM (inactive) |

Tell me measured GI50 for "OCCN(CO)CO" please.
> 100 µM (inactive)

====

System: LOX IMVI
Assay: NCI tumour cell line growth inhibition, 48 h
Counter-ions that a name gives are not always drawn. Activity calls are given as the source filed them. Rule as the data show it: active = GI50 up to about 1.1 µM and inactive = higher. *1 amine or outer side, *2 acyl side, *3 side chain or, on linkers, in order; H or OH if unused. Where a SMILES comes first, the peptide text is derived from it. Bridges are numbered along the chain shown (N, C = ends). [ ]: non-standard residue; d: D form. ξ: configuration not given here. X10 = CCC(C)C(N[*:1])C(O)CC(=O)O[C@H](C(=O)C(C)C(=O)[*:2])C(C)C; NMeY = CN[C@@H](Cc1ccc(O)cc1)C(=O)O; ξNMeL = CNC(CC(C)C)C(=O)O; ξT = CC(O)C(N)C(=O)O
Please answer using one outcome listed in 1 (yes) = active, 0 (no) = inactive

Example cases with answers are listed next.
| compound | assigned-category |
| --- | --- |
| CCCC[N+](CCCC)(CCCC)CCCC.O=S(=O)([O-])ON=C1c2ccccc2-c2ccccc21 | 0 (no) |
| OCC(CN1CCCCC1)(CN1CCCCC1)CN1CCCCC1 | 0 (no) |
| C=C1C(=O)OC2C1CC1OC2C(C)CCC/C(C)=C\CCC1(C)O (stereo not drawn) | 0 (no) |
| Brc1ccc(/C=N/C23CC4CC(CC(C4)C2)C3)cc1 | 0 (no) |
| CCC(C)C1NC(=O)C(NC(=O)C(CC(C)C)N(C)C(=O)[C@@H]2CCCN2)C(C)OC(=O)[C@H](Cc2ccc(OC)cc2)N(C)C(=O)[C@@H]2CCCN2C(=O)[C@H](CC(C)C)NC(=O)C(C)C(=O)[C@H](C(C)C)OC(=O)CC1O (stereo partly drawn) (H-P[ξNMeL][ξT][X10]LP[NMeY](Me); ester 3-C) | 1 (yes) |

For "C=CCOc1ccc2c(C)cc(=O)oc2c1C" , what call appears in the results of this test?
0 (no)

// return assay outcome for CC(NC(=O)C(Cc1ccc(OC(=O)c2ccccc2)cc1)NC(=O)OC(C)(C)C)C(=O)NCC(=O)NC(Cc1ccccc1)C(=O)NN (stereo not drawn)
0 (no)

Could you kindly confirm the outcome this assay logged for CCN(CC)CCNc1ccc(C)c2sc3ccccc3c(=O)c12 [LUCANTHONE HYDROCHLORIDE] ?
0 (no)

====

// reported GI50 for each item listed
System: OVCAR-4
Experiment: NCI tumour cell line growth inhibition, 48 h
Structures can show the parent of a compound that is named as a salt. Calls of active or inactive are those of the source. No stated cut-off is given here; in the data, active = GI50 up to about 1.1 µM and inactive = higher.

Examples from the recorded data:
| molecule | GI50 |
| --- | --- |
| O=C1NC(=S)N/C1=C\c1ccc(Cl)cc1 | 39.2 µM (inactive) |
| Cc1cc(C)nc(NS(=O)(=O)c2ccc(NNc3c4ccccc4nc4c(C(=O)Nc5ccc(S(=O)(=O)N=C(N)N)cc5)cccc34)cc2)n1 | 65.2 µM (inactive) |
| C=C(CN(C)C)C(=O)c1cc(C)ccc1C | 9.75 µM (inactive) |
| CCN(CC)CCNc1ccc(C)c2sc3ccccc3c(=O)c12 [LUCANTHONE HYDROCHLORIDE] | 4.66 µM (inactive) |

Fill in GI50 for record "CN(C)CCNC(=O)c1ccccc1Nc1c(Cl)cccc1Cl"
14.6 µM (inactive)

Name the recorded GI50 of the item O=C(O)CCC(NC(=O)c1ccc(Nc2cnc3ccc(C(F)(F)F)cc3n2)cc1)C(=O)O (stereo not given) in your answer.
> 100 µM (inactive)

====

System: IGROV-1
Test: NCI tumour cell line growth inhibition, 48 h
Calls of active or inactive are those of the source. No stated cut-off is given here; in the data, active = GI50 up to about 1.1 µM and inactive = higher.
Reply using exactly one outcome from active, inactive

| compound | assigned-category |
| --- | --- |
| O=[N+]([O-])c1ccc2nc3c(nc2c1)-c1c2ccccc2cc2cccc-3c12 | inactive |
| Cn1cc(C(=O)NCCC(=N)N)cc1NC(=O)C1=[N+](C)C=C(NC(=O)c2cccc(C(=O)NC3=CC(C(=O)Nc4cc(C(=O)NCCC(=N)N)cn4C)=[N+](C)C3)c2)C1 | inactive |
| COc1ccc(CCN2CCC(C#N)(c3ccc(OC)c(OC)c3)CC2)cc1OC | inactive |
| O=[N+]([O-])C(Cl)C(Cl)C(Cl)=C(Cl)Cl (centres undefined) | inactive |
| CCOC(=O)c1c2c(n(-c3ccc(C)cc3)c1C)-c1ccccc1C(=O)C2(C(=O)OCC)C(=O)OCC | inactive |

# lookup: test call for "CC(=O)c1sc2c(c1OC(=O)c1cccs1)c(=O)n(-c1ccccc1)c(=S)n2-c1ccccc1"
inactive

I'd appreciate the recorded outcome for "N#C/C(=C\c1cc2ccccc2c2ccccc12)c1ccccc1" from this test.
inactive

// outcome(item) with item = "NCCCNc1ccc2c3c(nn2CCNCCO)-c2c(O)ccc(O)c2C(=O)c13"
inactive

Hi team, can someone confirm the assay call for "COc1cc(Oc2nc3c(N)cc(C(F)(F)F)cc3nc2-c2ccccc2)cc(OC)c1OC" ?
active

====

Tested on: NCI-H23
Assay: NCI tumour cell line growth inhibition, 48 h
Calls of active or inactive are those of the source. No stated cut-off is given here; in the data, active = GI50 up to about 1.1 µM and inactive = higher.
Entries and their measured GI50 follow.

| molecule | recorded-metric | measurement |
| --- | --- | --- |
| COc1ccc(C(=O)c2ccc(-n3cc(/C=C/[N+](=O)[O-])c4ccccc43)cc2)cc1 | GI50 | 20.1 µM (inactive) |
| CCc1cccc(CC)c1Nc1nc2c(s1)C(=O)c1ccccc1C2=O | GI50 | 15.3 µM (inactive) |
| Cc1cc(NC(=O)NC(=O)c2ccccc2N(C)C)ccc1Oc1ncc(Br)cn1 | GI50 | 1.17 µM (inactive) |
| C=CCOc1ccc2c(C)cc(=O)oc2c1C | GI50 | > 100 µM (inactive) |
| Nc1nc2c(ncn2C2OC(CO)C(O)C2N)c(=O)[nH]1 (stereo unspecified) | GI50 | > 100 µM (inactive) |

Note GI50 for the molecule shown: "C=C(C)[C@@H]1CC[C@]2(C(=O)O)CC[C@]3(C)[C@H](CC[C@@H]4[C@@]5(C)CC[C@H](C(=O)/C=C/c6ccc(O)cc6)C(C)(C)[C@@H]5CC[C@]43C)[C@@H]12"
4.22 µM (inactive)

====

System: A498
Assay: NCI tumour cell line growth inhibition, 48 h
Calls of active or inactive are those of the source. No stated cut-off is given here; in the data, active = GI50 up to about 1.1 µM and inactive = higher.
GI50: recorded values

# example entries with known answers
| compound | GI50 |
| --- | --- |
| S=c1oc(CCCCCCCCc2nn(CNc3ccc(Cl)cc3)c(=S)o2)nn1CNc1ccc(Cl)cc1 | > 100 µM (inactive) |
| CC(C)[C@H](NC(=O)OCc1ccccc1)C(=O)N[C@H](/C=C/C(=O)OC(C)(C)C)CO | > 100 µM (inactive) |
| O=C1CCC(=O)N1Sc1ccccc1 | > 100 µM (inactive) |
| COC(=O)c1sc2ncc3c(c2c1N)CC(C)CC3 (stereo not given) | > 100 µM (inactive) |

Could you now look at the following compound, please?
Supply reported GI50 belonging to this compound: OCC1OC(NC(=S)NCCC(F)(F)C(F)(F)C(F)(F)C(F)(F)C(F)(F)C(F)(F)F)C(O)C(O)C1O (stereo not given)
18.5 µM (inactive)
